Test system: DLD1
TEST SUMMARY: TCF/Wnt firefly luciferase reporter signal relative to plate median (fraction of plate median); higher = higher Wnt reporter signal
TEST PARAMETERS: 10 µM; treatment time 24 h; reporter: TCF4/Wnt
Provide the reported TCF/Wnt firefly luciferase reporter signal of each item.
Give bare numbers.

Example molecules with recorded TCF/Wnt firefly luciferase reporter signal:
CN[C@@H]1C[C@H]2O[C@@](C)([C@@H]1OC)n1c3ccccc3c3c4c(c5c6ccccc6n2c5c31)C(=O)NC4 : 0.2
Cc1ccccc1-n1c(Cn2ncc3c(N)ncnc32)nc2cccc(C)c2c1=O : 0.77

I have 3 molecules here; please give me TCF/Wnt firefly luciferase reporter signal for each one.
1. COC[C@H]1OC(=O)c2coc3c2[C@@]1(C)C1=C(C3=O)[C@@H]2CCC(=O)[C@@]2(C)C[C@H]1OC(C)=O
2. CC(C)(C)c1cc(C=C(C#N)C#N)cc(Br)c1O
3. CCN1CCN(C(=O)Cc2ccc(Nc3ncc(F)c(Nc4ccc(C(=O)Nc5ccccc5Cl)cc4)n3)cc2)CC1

[0.821, 1.07, 1.16]
